assay: Oral bioavailability in dog at 2 mg/kg; assay type: ADME, organism-based, Canis lupus familiaris; settings: in vivo

| cpd-smiles | bioavailability, % |
| --- | --- |
| COc1cc(-c2cccc(C(F)(F)F)c2)c(F)cc1-c1nccc2cc(S(=O)(=O)Nc3ccon3)ccc12 | 63 |

* * *

test system: Canis familiaris; assay: Unbound clearance in dog at 0.25 mg/kg, iv; type: ADME, organism-based, Canis lupus familiaris; details: in vivo
Consider the following compounds and their measured log10(CL free) readings.
measured-quantity: log10(CL free) (log10 of the value in mL/min/kg)

| cpd-smiles | measurement-target | log10(CL free) |
| --- | --- | --- |
| COc1cc(-c2cccc(F)c2)c(Cl)cc1-c1nccc2cc(S(=O)(=O)Nc3ncon3)ccc12 | Canis familiaris | 3.41 |
| COc1cc(C(F)(F)F)ccc1-c1ncnc2cc(S(=O)(=O)Nc3nccs3)ccc12 | Canis familiaris | 2.30 |
| COc1cc(-c2cccc(F)c2)ccc1-c1nccc2cc(S(=O)(=O)Nc3ccncn3)ccc12 | Canis familiaris | 2.18 |
| COc1cc(-c2cccc(F)c2)c(Cl)cc1-c1nn(C)c(=O)c2cc(S(=O)(=O)Nc3ccon3)ccc12 | Canis familiaris | 2.71 |
| COc1cc(-c2cccc(C(F)(F)F)c2)c(F)cc1-c1nccc2cc(S(=O)(=O)Nc3ccon3)ccc12 | Canis familiaris | 1.78 |
| COc1cc(-c2cccc(F)c2)c(Cl)cc1-c1[nH]c(=O)cc2cc(S(=O)(=O)Nc3ccon3)ccc12 | Canis familiaris | 3.93 |
| COc1cc(-c2cccc(F)c2)c(Cl)cc1-c1ncnc2cc(S(=O)(=O)Nc3ccon3)ccc12 | Canis familiaris | 2.62 |
| COc1cc(C(F)(F)F)ccc1-c1nccc2cc(S(=O)(=O)Nc3ccncn3)ccc12 | Canis familiaris | 1.43 |
| COc1cc(-c2cccc(F)c2)c(Cl)cc1-c1ncc(O)c2cc(S(=O)(=O)Nc3ccon3)ccc12 | Canis familiaris | 3.37 |

* * *

target: Sodium channel protein type 4 subunit alpha (Homo sapiens, UniProt P35499); assay: Inhibition of human Nav1.4 expressed in HEK293 cells assessed as reduction in peak inward current by ionworks quattro electrophysiology assay
Sequence (P35499 whole entry): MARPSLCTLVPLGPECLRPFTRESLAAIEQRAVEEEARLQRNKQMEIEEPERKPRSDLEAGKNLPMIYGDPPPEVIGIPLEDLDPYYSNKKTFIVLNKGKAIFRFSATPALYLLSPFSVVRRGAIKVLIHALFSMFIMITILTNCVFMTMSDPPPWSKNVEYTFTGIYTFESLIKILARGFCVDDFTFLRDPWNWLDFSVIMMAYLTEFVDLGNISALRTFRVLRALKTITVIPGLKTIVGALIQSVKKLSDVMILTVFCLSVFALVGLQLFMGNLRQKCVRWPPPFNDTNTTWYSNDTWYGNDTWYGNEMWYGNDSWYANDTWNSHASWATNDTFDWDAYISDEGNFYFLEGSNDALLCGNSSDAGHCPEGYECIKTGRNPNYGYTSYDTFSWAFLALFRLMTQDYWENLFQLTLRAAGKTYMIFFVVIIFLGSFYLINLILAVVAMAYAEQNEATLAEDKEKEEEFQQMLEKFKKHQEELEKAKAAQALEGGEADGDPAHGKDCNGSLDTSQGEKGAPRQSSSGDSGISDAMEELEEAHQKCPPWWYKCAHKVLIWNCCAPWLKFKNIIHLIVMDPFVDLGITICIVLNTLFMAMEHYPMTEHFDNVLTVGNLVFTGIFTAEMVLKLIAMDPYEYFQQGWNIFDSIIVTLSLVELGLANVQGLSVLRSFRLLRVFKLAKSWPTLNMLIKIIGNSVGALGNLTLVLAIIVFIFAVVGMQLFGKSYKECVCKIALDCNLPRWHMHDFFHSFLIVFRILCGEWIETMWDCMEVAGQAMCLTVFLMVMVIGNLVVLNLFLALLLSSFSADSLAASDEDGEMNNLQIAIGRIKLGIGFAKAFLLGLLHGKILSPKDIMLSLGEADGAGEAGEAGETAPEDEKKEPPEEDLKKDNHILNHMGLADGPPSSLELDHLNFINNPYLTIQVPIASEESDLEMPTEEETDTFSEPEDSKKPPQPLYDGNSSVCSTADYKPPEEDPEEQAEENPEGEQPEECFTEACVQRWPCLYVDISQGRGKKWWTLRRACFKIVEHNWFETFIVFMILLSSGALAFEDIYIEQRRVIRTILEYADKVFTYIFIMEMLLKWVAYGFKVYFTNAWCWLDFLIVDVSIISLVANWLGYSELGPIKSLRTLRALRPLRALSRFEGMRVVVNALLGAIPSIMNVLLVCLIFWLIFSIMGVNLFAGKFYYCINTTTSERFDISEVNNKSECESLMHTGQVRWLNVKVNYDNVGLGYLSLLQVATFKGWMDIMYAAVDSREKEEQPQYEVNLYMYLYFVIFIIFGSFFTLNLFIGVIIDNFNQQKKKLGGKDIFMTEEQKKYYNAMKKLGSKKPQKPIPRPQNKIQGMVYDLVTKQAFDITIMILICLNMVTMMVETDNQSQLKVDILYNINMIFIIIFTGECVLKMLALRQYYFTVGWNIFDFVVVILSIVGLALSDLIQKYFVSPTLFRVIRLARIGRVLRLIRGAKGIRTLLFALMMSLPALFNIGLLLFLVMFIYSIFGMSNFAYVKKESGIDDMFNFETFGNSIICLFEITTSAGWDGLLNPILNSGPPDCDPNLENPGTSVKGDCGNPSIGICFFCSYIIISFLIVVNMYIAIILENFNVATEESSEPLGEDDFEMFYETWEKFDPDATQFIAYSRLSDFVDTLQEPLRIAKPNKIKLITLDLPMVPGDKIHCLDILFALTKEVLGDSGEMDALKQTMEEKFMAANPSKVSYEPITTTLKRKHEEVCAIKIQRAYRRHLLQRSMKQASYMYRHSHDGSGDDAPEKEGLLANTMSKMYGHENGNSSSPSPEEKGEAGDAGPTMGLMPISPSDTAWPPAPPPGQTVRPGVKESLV

| cpd-smiles | units-symbol | IC50 |
| --- | --- | --- |
| COc1cc(-c2cccc(C(F)(F)F)c2)c(F)cc1-c1nccc2cc(S(=O)(=O)Nc3ccon3)ccc12 | µM | 12 |

* * *

target: Cytochrome P450 2C9 (Homo sapiens, UniProt P11712)
Sequence (P11712 whole entry): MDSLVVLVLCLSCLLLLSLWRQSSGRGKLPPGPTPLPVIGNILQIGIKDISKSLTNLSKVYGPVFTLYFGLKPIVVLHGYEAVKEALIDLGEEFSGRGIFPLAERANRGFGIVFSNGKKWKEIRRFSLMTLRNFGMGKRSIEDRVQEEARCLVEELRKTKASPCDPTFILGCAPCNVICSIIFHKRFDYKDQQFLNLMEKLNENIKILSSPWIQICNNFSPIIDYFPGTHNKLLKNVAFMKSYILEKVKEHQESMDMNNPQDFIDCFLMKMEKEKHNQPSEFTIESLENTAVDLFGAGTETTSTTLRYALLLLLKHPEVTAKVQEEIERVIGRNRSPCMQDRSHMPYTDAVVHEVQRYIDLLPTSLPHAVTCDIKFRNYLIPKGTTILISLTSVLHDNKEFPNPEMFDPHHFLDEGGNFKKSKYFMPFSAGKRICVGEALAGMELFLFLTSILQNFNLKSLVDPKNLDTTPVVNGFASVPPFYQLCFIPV
measured-quantity: IC50 (nM)

| cpd-smiles | measured-quantity | units-symbol | measured |
| --- | --- | --- | --- |
| COc1cc(-c2cccc(C(F)(F)F)c2)c(F)cc1-c1nccc2cc(S(=O)(=O)Nc3ccon3)ccc12 | IC50 | nM | 430 |

* * *

target: Sodium channel protein type 5 subunit alpha (Homo sapiens, UniProt Q14524); assay: Inhibition of human Nav1.5 expressed in HEK293 cells assessed as reduction in peak inward current by ionworks quattro electrophysiology assay
Sequence (Q14524 whole entry): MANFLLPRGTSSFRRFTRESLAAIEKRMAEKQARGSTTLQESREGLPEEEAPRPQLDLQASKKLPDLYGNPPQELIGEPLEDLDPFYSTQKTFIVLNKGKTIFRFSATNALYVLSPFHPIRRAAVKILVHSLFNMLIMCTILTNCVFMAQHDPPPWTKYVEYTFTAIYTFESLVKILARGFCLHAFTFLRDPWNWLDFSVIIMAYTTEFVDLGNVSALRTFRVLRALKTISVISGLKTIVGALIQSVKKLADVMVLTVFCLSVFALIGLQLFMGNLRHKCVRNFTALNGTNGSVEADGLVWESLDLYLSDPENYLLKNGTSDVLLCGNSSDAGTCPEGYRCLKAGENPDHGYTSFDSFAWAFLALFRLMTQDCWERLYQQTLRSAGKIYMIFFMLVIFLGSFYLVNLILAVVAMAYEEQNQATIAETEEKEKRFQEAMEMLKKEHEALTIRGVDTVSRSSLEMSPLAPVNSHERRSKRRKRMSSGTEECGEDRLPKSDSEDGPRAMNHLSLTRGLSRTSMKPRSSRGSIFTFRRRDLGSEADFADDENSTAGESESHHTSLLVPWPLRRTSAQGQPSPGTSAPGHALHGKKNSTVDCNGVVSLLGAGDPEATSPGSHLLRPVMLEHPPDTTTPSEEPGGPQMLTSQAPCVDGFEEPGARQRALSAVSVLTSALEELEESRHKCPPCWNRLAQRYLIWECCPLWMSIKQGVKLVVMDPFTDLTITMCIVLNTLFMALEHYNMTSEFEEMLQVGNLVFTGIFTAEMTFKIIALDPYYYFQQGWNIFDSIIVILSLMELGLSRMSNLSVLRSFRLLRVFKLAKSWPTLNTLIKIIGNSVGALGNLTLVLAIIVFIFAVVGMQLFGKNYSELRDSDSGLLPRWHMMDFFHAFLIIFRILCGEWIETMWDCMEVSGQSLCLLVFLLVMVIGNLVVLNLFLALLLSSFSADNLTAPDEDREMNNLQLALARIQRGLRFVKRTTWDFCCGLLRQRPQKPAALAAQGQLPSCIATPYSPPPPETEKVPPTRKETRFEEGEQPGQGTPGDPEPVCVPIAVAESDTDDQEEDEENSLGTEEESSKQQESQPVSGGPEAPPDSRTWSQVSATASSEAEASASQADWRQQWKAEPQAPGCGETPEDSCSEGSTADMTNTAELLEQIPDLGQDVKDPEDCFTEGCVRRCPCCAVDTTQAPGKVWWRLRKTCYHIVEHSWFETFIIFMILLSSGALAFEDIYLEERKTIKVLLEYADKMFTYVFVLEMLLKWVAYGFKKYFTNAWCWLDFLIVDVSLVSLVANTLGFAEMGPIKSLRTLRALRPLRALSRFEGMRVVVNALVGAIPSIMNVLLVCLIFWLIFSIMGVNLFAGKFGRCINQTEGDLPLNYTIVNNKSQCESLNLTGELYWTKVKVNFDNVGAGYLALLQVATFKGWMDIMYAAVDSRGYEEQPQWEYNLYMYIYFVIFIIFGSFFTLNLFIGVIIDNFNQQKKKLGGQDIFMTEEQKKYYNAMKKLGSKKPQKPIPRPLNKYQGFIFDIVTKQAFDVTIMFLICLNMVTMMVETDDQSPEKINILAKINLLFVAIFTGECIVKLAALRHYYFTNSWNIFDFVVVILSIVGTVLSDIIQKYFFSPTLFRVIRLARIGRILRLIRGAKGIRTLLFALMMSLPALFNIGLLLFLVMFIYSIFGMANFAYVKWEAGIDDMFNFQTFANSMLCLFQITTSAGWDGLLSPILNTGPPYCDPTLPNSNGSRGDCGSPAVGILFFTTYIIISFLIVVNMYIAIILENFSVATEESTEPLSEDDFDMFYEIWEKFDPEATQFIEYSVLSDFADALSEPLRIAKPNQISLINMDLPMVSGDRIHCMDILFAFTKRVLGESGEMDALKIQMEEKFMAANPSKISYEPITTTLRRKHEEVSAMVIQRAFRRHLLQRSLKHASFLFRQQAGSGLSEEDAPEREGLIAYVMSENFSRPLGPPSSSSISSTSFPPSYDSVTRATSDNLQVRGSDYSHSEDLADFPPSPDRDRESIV
pIC50: −log10 of the molar value.
Consider the following molecules and their measured pIC50 readings.

| cpd-smiles | pIC50 |
| --- | --- |
| COc1cc(-c2cccc(F)c2)c(Cl)cc1-c1c(=O)n(C)cc2cc(S(=O)(=O)Nc3ccon3)ccc12 | < 5.00 |
| COc1cc(-c2cccc(F)c2)c(Cl)cc1-c1c(N)nnc2cc(S(=O)(=O)Nc3ccon3)ccc12 | 6.85 |
| COc1cc(C(F)(F)F)ccc1-c1ncnc2cc(S(=O)(=O)Nc3nccs3)ccc12 | < 4.52 |
| COc1cc(-c2ccc(Cl)c(C)c2)c(F)cc1-c1nccc2cc(S(=O)(=O)Nc3ccon3)ccc12 | < 5.00 |
| COc1cc(-c2cccc(F)c2)c(Cl)cc1-c1nccc2cc(S(=O)(=O)Nc3ccncn3)ccc12 | < 5.00 |
| COc1cc(-c2cccc(C)c2)c(F)cc1-c1nccc2cc(S(=O)(=O)Nc3ccon3)ccc12 | < 5.00 |
| COc1cc(-c2cc(F)cc(F)c2)c(F)cc1-c1nccc2cc(S(=O)(=O)Nc3ccon3)ccc12 | < 5.00 |
| COc1cc(-c2cccc(F)c2)ccc1-c1nccc2cc(S(=O)(=O)Nc3ccncn3)ccc12 | < 4.52 |
| COc1cc(-c2cccc(C(F)(F)F)c2)c(F)cc1-c1nccc2cc(S(=O)(=O)Nc3ccon3)ccc12 | 4.92 |
| COc1cc(C(F)(F)F)ccc1-c1nccc2cc(S(=O)(=O)Nc3ccncn3)ccc12 | < 4.52 |
| COc1cc(-c2cccc(F)c2)c(Cl)cc1-c1nccc2cc(S(=O)(=O)Nc3ncccn3)ccc12 | < 5.00 |
| COc1cc(-c2ccc(C(F)(F)F)cc2)c(F)cc1-c1nccc2cc(S(=O)(=O)Nc3ccon3)ccc12 | < 5.00 |
| COc1cc(-c2cccc(F)c2)c(Cl)cc1-c1nccc2cc(S(=O)(=O)Nc3ncns3)ccc12 | 5.82 |
| COc1cc(-c2cccc(F)c2)c(Cl)cc1-c1[nH]c(=O)cc2cc(S(=O)(=O)Nc3ccon3)ccc12 | 6.09 |
| COc1cc(-c2cccc(F)c2)c(Cl)cc1-c1nccc2cc(S(=O)(=O)Nc3ncco3)ccc12 | < 5.00 |
| COc1cc(-c2cccc(F)c2)c(Cl)cc1-c1nccc2cc(S(=O)(=O)Nc3ccon3)ccc12 | < 5.00 |
| COc1cc(-c2cc(F)cnc2OC)c(F)cc1-c1nccc2cc(S(=O)(=O)Nc3ccon3)ccc12 | < 5.00 |

Data provenance: ChEMBL document CHEMBL4011598
